# ASSAY PROTOCOL: Diarrheic activity
# Set-up: species or system mice
# CONDITION LABEL: mouse, in vivo, po
Structures can show the parent of a compound that is named as a salt.
Recorded ED50 at 3 h for the following compounds
Give the value; after it, write the unit.

CON=CC1CN2CCC1CC2 (centres unmarked) = 1.1 mg/kg

The recorded ED50 at 3 h for entry CON=C(C)C1CN2CCC1CC2 (centres unmarked) [Example 4, hydrochloride] equals 3 mg/kg

---

# ASSAY PROTOCOL: Acute toxicity (mortality during 7 days, oral)
# CONDITION LABEL: mouse, in vivo, male CD1 mice, fasted 16 hours, mortality noted during 7 days
Where a name gives a salt, the structure may show the parent alone.
Recorded LD50 at 168 h for the following compounds
// return numeric value only (unit: mg/kg, not printed)

Solved cases (2 shown):
C#CCON=CC1CN2CCC1CC2 (centres unmarked) = 40
CC(=O)OC1CN2CCC1CC2 (centres unmarked) [Aceclidine, HCl] = 250

The recorded LD50 at 168 h for entry CON=CC1CN2CCC1CC2 (centres unmarked) equals 30

The recorded LD50 at 168 h for entry CON=C(C)C1CN2CCC1CC2 (centres unmarked) [Example 4, hydrochloride] equals 75

The recorded LD50 at 168 h for entry CCON=CC1CN2CCC1CC2 (centres unmarked) equals 150

---

# ASSAY PROTOCOL: Diarrheic activity
# Design: species or system mice
# CONDITION LABEL: mouse, in vivo; male CD1 mice, fasted 6 hours, oral, observed up to 180 minutes; read-out: ED50 (dose which causes diarrhoea in 50% of the animals)
Structures can show the parent of a compound that is named as a salt.
PROPERTY: ED50 at 3 h (mg/kg)
// return numeric value only (unit: mg/kg, not printed)

The recorded ED50 at 3 h for entry CC(=O)OC1CN2CCC1CC2 (stereo not shown) [Aceclidine, HCl] equals 4
